Test system: BDF1 mice, P388 leukemia ip, median survival T/C
Assay: NCI In Vivo Anticancer Drug Screen. Data for tumor model P388 Leukemia (intraperitoneal) in B6D2F1 (BDF1) mice
Conditions: endpoint: median survival time; dose: 200.0 mg/kg/injection; schedule: Q04DX003 (ip); vehicle: saline with Tween-80
Toxic doses and inconclusive results are not listed. The calls were made as follows: active = survival T/C of 150% or more; inactive = T/C below 125% in these data.
Entry note: the call must match one of yes for active, no for inactive

Would you please look over these solved cases?
1) C#CC(OC(=O)NC1CCCCC1)(c1ccccc1)c1ccccc1
no
2) O=NN(CCCl)C(=O)NC12CC3CC(CC(C3)C1)C2
yes
3) CCCCCCCCCCCCCCCCS(=O)(=O)CCO
no

What is the recorded call for this compound in the test? `CCNNC(=O)[C@@H]1[C@H](c2cc(OC)c(OC)c(OC)c2)c2cc3c(cc2[C@H](O)[C@H]1CO)OCO3`
no

For `[Cl][Pt+2]([Cl])([Cl])[Cl].[Na+].[S-]c1ncnc2nc[nH]c12.[S-]c1ncnc2nc[nH]c12` then?
no
